target: Hexokinase-4 (Homo sapiens, UniProt P35557); assay: Inhibition of fluorescein-labeled human GK interaction with biotin-labeled human GKRP compound incubated for 20 mins prior to addition of fluorescein-labeled GK measured after 2 to 4 hrs by AlphaScreen assay
Sequence (P35557 whole entry): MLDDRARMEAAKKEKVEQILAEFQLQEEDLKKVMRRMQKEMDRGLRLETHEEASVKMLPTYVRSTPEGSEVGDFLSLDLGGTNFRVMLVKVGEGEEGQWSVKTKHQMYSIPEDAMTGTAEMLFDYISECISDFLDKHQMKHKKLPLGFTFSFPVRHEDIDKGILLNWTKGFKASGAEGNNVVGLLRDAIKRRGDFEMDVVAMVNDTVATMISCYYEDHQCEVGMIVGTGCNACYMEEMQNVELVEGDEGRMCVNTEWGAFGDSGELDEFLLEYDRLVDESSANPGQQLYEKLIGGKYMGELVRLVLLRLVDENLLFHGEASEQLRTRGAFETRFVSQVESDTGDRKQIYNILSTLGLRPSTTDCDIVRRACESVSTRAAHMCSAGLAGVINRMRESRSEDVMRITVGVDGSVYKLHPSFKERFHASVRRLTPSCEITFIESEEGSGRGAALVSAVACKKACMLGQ
readout.kind: log10 IC50 (log10 of the value in nM)
In plain terms, each number is the log10 of measured IC50 in nM.

q: Fill in the blank: the reported log10 IC50 of Cn1cc(-c2cc(C(O)(C(F)(F)F)C(F)(F)F)cnc2N2CCN(S(=O)(=O)c3ccc(N)nc3)CC2)c(C(F)(F)F)n1 is ____.
a: 4.48

q: What about this compound? Nc1ccc(S(=O)(=O)N2CCN(c3ncc(C(O)(C(F)(F)F)C(F)(F)F)cc3-c3ccccc3)CC2)cn1
a: 0.85

q: What about this compound? Nc1ccc(S(=O)(=O)N2CCN(c3ccc(C(O)(C(F)(F)F)C(F)(F)F)cn3)CC2)cn1
a: 2.25

q: What about this compound? Cc1cncc(-c2cc(C(O)(C(F)(F)F)C(F)(F)F)cnc2N2CCN(S(=O)(=O)c3ccc(N)nc3)CC2)c1
a: 1.46

q: What about this compound? Cc1csc(-c2cc(C(O)(C(F)(F)F)C(F)(F)F)cnc2N2CCN(S(=O)(=O)c3ccc(N)nc3)CC2)c1
a: 0.70

q: What about this compound? Nc1ccc(S(=O)(=O)N2CCN(c3ncc(C(O)(C(F)(F)F)C(F)(F)F)cc3-c3cc4ccccc4s3)CC2)cn1
a: 1.68

q: What about this compound? Nc1ccc(S(=O)(=O)N2CCN(c3ncc(C(O)(C(F)(F)F)C(F)(F)F)cc3C#CCO)CC2)cn1
a: 1.15

q: What about this compound? Nc1ccc(S(=O)(=O)N2CCN(c3ncc(C(O)(C(F)(F)F)C(F)(F)F)cc3-c3cccc4[nH]ncc34)CC2)cn1
a: 3.29
